Provide the recorded CC50 for the entries that follow.
test: Cytotoxicity in CEM cells in the absence of virus; assay type: cell-based; settings: human, CEM (CCRF-CEM) cells; read-out: TC50 (the source's name)
Answers are plain numbers, in µM.

Please review the entries below; each comes with its answer.
compound: Cc1ccc(C(C)(C)C)c(SC2=C(O)OC(CCc3ccc(O)cc3)(c3ccccc3)CC2=O)c1 (centres undefined)
CC50 (µM): 69
--
compound: Cc1cc(SC2=C(O)OC(CCc3ccc(O)cc3)(c3ccc(O)cc3)CC2=O)c(C(C)(C)C)cc1CO (centres undefined)
CC50 (µM): 21
--
compound: Cc1cc(SC2=C(O)OC(CCc3ccccc3)(c3ccccc3)CC2=O)c(C(C)(C)C)cc1CO (centres undefined)
CC50 (µM): 66

CC50 measured on COCc1cc(C(C)(C)C)c(SC2=C(O)OC(CCc3ccccc3)(c3ccc(OCCO)cc3)CC2=O)cc1C (centres undefined) = 18
